Reference source: patent US9540323B2

# EXPERIMENTAL_TARGET: cloned human P2Y1 receptors (Homo sapiens (Human), UniProt P47900)
# Sequence (P47900 whole entry): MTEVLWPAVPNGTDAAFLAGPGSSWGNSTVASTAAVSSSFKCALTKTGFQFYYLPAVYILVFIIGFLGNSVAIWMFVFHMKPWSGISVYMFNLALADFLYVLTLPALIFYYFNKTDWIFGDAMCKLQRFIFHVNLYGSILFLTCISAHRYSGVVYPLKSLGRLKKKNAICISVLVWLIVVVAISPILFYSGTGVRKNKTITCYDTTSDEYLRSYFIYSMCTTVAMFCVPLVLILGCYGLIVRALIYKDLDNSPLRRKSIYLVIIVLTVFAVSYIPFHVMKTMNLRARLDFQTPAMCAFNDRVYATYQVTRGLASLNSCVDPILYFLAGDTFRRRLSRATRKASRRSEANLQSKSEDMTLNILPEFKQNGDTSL
# ASSAY_INFO: Binding Assay B - Scintillation Proximity Assay (SPA) for P2Y1 binding, [33P] 2MeS-ADP
# MEASUREMENT_SETUP: SPA, 0.3 nM [33P] 2MeS-ADP, Cheng-Prusoff; read-out: P2Y1 Ki (nM) using binding assay B
MEASURE_NAME: Ki (nM)
All answers are understood in nM, so give the number only.

Answered cases to consult:
[[record]]
compound = "CCOC(=O)C1(C)CN(c2ccccc2NC(=O)Nc2ccc(OC(F)(F)F)cc2)c2c(O)ccc(Cl)c21 (centres unmarked)"
measure_name = "Ki"
endpoint_value = 19.8

[[record]]
compound = "CC1(C)CN(c2ccccc2NC(=O)Nc2nc3ccc(Cl)nc3s2)c2c(O)cc(F)c(-c3cc(C(F)(F)F)no3)c21"
measure_name = "Ki"
endpoint_value = 20.5

[[record]]
compound = "CC(C)Cc1nc(-c2c(F)cc(O)c3c2C(C)(C)CN3c2ccccc2NC(=O)Nc2ccc(OC(F)(F)F)cc2)co1"
measure_name = "Ki"
endpoint_value = 18.8

[[record]]
compound = "CC1(C)CN(c2ccccc2NC(=O)Nc2ccc(OC(F)(F)F)cc2)c2c(O)cc(F)c(-c3ccnc(F)c3)c21"
measure_name = "Ki"
endpoint_value = 10.6

[[record]]
compound = "CC1(C)CN(c2ccccc2NC(=O)Nc2nc3ccc(F)cc3s2)c2c(O)cc(F)c(-c3ccc(F)cc3)c21"
measure_name = "Ki"
endpoint_value = 25.4

[[record]]
compound = "CC1(C)CN(c2ccccc2NC(=O)Nc2nc3ccc(F)cc3s2)c2c(O)ccc(-c3nc4ccc(F)cc4o3)c21"
measure_name = "Ki"
endpoint_value = 31.9

[[record]]
compound = "CC1(C)CN(c2ccccc2NC(=O)Nc2csc(C(F)(F)F)n2)c2c(O)cc(F)c(-c3ccc(Cl)cc3)c21"
measure_name = "Ki"
endpoint_value = 34.4

[[record]]
compound = "CC1(C)CN(c2ccccc2NC(=O)Nc2ccc(OC(F)(F)F)cc2)c2c(O)ccc(-c3nc4cc(C(F)(F)F)ccc4s3)c21"
measure_name = "Ki"
endpoint_value = 42.9


The compound CC1(C)CN(c2ccccc2NC(=O)Nc2nc3ccc(F)cc3s2)c2c(O)ccc(Br)c21 showed Ki equal to 10.8

The compound CCC1(CC)CN(c2ccccc2NC(=O)Nc2csc(Cl)n2)c2c(O)ccc(Cl)c21 showed Ki equal to 5

The compound CC(C)(C)c1ccc(-c2c(F)cc(O)c3c2C(C)(C)CN3c2ccccc2NC(=O)Nc2ccc(OC(F)(F)F)cc2)cn1 showed Ki equal to 26.8

The compound CC1(C)CN(c2ccccc2NC(=O)Nc2nc3c(s2)CN(CC2CC2)CC3)c2c(O)ccc(C(F)(F)F)c21 showed Ki equal to 10.4

The compound CC(C)(C)c1ccccc1Oc1ncccc1NC(=O)Nc1ccccc1N1CC(C)(C)c2ccccc21 [Comparator 3, reference compound] showed Ki equal to 759

The compound CC1(C)CN(c2ccccc2NC(=O)Nc2ccc(OC(F)(F)F)cc2)c2c(O)ccc(-c3ccc(F)cc3F)c21 showed Ki equal to 8
